Items are presented alongside their recorded Kd.
target: T1, purified human CD117 ectodomain (R&D Systems #332-SR) (human, UniProt P10721 26-524)
T1 construct: extracellular domain; Bought protein; also called c-kit; purified recombinant human CD117 ectodomain
T1 sequence (P10721 26-524): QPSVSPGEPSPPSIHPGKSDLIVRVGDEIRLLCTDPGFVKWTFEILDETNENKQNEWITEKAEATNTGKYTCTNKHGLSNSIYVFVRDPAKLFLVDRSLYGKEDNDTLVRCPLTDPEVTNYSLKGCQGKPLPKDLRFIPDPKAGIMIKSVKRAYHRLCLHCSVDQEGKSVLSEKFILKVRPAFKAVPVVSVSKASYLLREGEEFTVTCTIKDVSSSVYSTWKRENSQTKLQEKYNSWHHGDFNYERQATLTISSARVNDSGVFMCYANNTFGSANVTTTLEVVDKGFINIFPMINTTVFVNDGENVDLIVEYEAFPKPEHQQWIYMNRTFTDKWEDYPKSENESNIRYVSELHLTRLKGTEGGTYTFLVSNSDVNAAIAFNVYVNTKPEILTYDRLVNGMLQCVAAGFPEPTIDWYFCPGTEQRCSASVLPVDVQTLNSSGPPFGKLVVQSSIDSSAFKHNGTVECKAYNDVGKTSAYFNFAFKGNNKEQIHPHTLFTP
experimental.details: BLI, purified IgG on sensor, soluble ectodomain; apparent monovalent
property.label: Kd (nM)

[
  {
    "binder": "HC-4/LC-4 (Ab4) (antibody, IgG1, V domains shown, Purified IgG; also called 004) VH: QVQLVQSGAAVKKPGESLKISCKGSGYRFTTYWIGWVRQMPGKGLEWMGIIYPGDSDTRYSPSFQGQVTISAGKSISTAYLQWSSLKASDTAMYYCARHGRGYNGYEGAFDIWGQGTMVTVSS VL: AIQMTQSPSSLSASVGDRVTITCRASQGIRNDLGWYQQKPGKAPKLLIYDASSLESGVPSRFSGSGSGTDFTLTISSLQPEDFATYYCQQFNSYPLTFGGGTKVDIK",
    "property.label": "Kd",
    "endpoint.unit": "nM",
    "reported.measurement": 1.18
  },
  {
    "binder": "HC-2/LC-2 (Ab2) (antibody, IgG1, V domains shown, Purified IgG; also called 002) VH: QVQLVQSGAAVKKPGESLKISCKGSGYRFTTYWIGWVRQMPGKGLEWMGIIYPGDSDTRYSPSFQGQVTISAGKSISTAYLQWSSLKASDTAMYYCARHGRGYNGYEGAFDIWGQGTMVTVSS VL: DIQLTQSPSSLSASVGDRVTITCRASQGIRTDLGWYQQKPGKAPKLLIYDASSLESGVPSRFSGSGSGTDFTLTISSLQPEDFATYYCQQFNSYPLTFGGGTKVEIK",
    "property.label": "Kd",
    "endpoint.unit": "nM",
    "reported.measurement": 0.729
  },
  {
    "binder": "HC-3/LC-3 (Ab3) (antibody, IgG1, V domains shown, Purified IgG; also called 003) VH: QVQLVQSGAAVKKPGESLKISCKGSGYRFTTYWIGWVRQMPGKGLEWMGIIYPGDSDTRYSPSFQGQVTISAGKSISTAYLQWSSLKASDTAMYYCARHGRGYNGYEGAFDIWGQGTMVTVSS VL: AIRMTQSPSSLSASVGDRVTITCRASQGIRNDLAWYQQKPGKTPKLLIYDASSLESGVPSRFSGSGSGTDFTLTISSLQPEDFATYYCQQFNSYPLTFGGGTKVEIK",
    "property.label": "Kd",
    "endpoint.unit": "nM",
    "reported.measurement": 1.02
  },
  {
    "binder": "HC-5/LC-5 (Ab5) (antibody, IgG1, V domains shown, Purified IgG; also called 005) VH: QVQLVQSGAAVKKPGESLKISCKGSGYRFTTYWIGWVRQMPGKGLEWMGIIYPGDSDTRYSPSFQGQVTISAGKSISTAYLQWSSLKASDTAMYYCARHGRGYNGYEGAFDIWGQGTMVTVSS VL: NIQMTQSPSSLSASVGDRVTITCRASQAISDYLAWFQQKPGKAPKLLIYDASNLETGVPSRFSGSGSGTDFTLTISSLQPEDFATYYCQQLNSYPLTFGGGTKVEIK",
    "property.label": "Kd",
    "endpoint.unit": "nM",
    "reported.measurement": 1.21
  },
  {
    "binder": "HC-15/LC-15 (Ab15) (antibody, IgG1, V domains shown, Purified IgG; also called 015) VH: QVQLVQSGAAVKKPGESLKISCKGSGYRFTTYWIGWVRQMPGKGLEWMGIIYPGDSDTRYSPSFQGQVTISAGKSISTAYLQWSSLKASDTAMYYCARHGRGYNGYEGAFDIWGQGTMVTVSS VL: AIQLTQSPSSLSASVGDRVTITCRASQGIGSALAWYQQKPGIGPKLLIYDASTLESGVPARFSGSGSRTDFTLTITSLQPEDFATYYCQQFNGYPLTFGGGTKLEIK",
    "property.label": "Kd",
    "endpoint.unit": "nM",
    "reported.measurement": 0.979
  },
  {
    "binder": "HC-27/LC-27 (Ab27) (antibody, IgG1, V domains shown, From rat immunization/hybridoma; purified IgG in BLI; also called 027) VH: EVQLVESGGGLVQPGRSMKLSCKASGFTFSNYDMAWVRQAPTRGLEWVASISYDGITAYYRDSVKGRFTISRENAKSTLYLQLVSLRSEDTATYYCTTEGGYVYSGPHYFDYWGQGVMVTVSS VL: DIQMTQSPSSMSVSLGDTVTITCRASQDVGIFVNWFQQKPGRSPRRMIYRATNLADGVPSRFSGSRSGSDYSLTISSLESEDVADYHCLQYDEFPRTFGGGTKLELK",
    "property.label": "Kd",
    "endpoint.unit": "nM",
    "reported.measurement": 0.53
  },
  {
    "binder": "HC-10/LC-10 (Ab10) (antibody, IgG1, V domains shown, Purified IgG; also called 010) VH: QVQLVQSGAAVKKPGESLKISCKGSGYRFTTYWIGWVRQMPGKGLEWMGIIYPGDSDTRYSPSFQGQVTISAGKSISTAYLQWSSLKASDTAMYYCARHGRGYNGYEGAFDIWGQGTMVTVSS VL: NIQMTQSPSSLSTSVGDRVTITCRASQGIGTSLAWYQQKPGKPPKLLIYDASSLESGVPSRLSGSGSGTDFTLTISSLQPEDFATYYCQQSNSYPITFGQGTRLEIK",
    "property.label": "Kd",
    "endpoint.unit": "nM",
    "reported.measurement": 1.68
  },
  {
    "binder": "HC-7/LC-7 (Ab7) (antibody, IgG1, V domains shown, Purified IgG; also called 007) VH: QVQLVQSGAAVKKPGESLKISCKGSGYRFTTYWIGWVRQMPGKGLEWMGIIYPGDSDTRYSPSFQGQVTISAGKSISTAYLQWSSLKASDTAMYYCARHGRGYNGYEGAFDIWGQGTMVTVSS VL: DIAMTQSPPSLSAFVGDRVTITCRASQGIISSLAWYQQKPGKAPKLLIYDASSLESGVPSRFSGSGSGTDFTLTIRSLQPEDFATYYCQQFNSYPLTFGGGTKLEIK",
    "property.label": "Kd",
    "endpoint.unit": "nM",
    "reported.measurement": 0.99
  },
  {
    "binder": "HC-21/LC-21 (Ab21) (antibody, IgG1, V domains shown, From rat immunization/hybridoma; purified IgG in BLI; also called 021) VH: QIQLVQSGPELKKPGESVKISCKASGYTFTDYAVYWVIQAPGKGLKWMGWINTYTGKPTYADDFKGRFVFSLETSASTANLQISNLKNEDTATYFCARGAGMTKDYVMDAWGRGVLVTVS VL: SYELIQPPSASVTLGNTVSLTCVGDELSKRYAQWYQQKPDKTIVSVIYKDSERPSDISDRFSGSSSGTTATLTIHGTLAEDEADYYCLSTYSDDNLPVFGGGTKLTVL",
    "property.label": "Kd",
    "endpoint.unit": "nM",
    "reported.measurement": 0.715
  },
  {
    "binder": "HC-20/LC-20 (Ab20) (antibody, IgG1, V domains shown, From rat immunization/hybridoma; purified IgG in BLI; also called 020) VH: EVQLQQYGAELGKPGTSVRLSCKLSGYKIRNTYIHWVNQRPGKGLEWIGRIDPANGNTIYAEKFKSKVTLTADTSSNTAYMQLSQLKSDDTALYFCAMNYEGYEDYWGQGVMVTVSS VL: DIQMTQSPSFLSASVGDSVTINCKASQNINKYLNWYQQKLGEAPKRLIHKTDSLQTGIPSRFSGSGSGTDYTLTISSLQPEDVATYFCFQYKSGFMFGAGTKLELK",
    "property.label": "Kd",
    "endpoint.unit": "nM",
    "reported.measurement": 0.254
  }
]
